test_details: Particle size and PDI by dynamic light scattering (Malvern Zetasizer)
Format: physicochemical
experimental_conditions: lipid/no neutral lipid/CHOL/GM-020 NOF 60/0/36/4, N/P 3
readout_name: PDI
Form rule: numeric answer, no unit written next to it.

Here are 4 molecules together with their reported answers.
molecule="CCCCC/C=C\\C/C=C\\CCCCCCCCOCC(CN1CCCCC1)OCCCOCCCO[C@H]1CC[C@@]2(C)C(=CC[C@H]3[C@@H]4CC[C@H]([C@H](C)CCCC(C)C)[C@@]4(C)CC[C@@H]32)C1 (some centres unmarked)" readout_name=PDI readout_value=0.127
molecule="CCCCC/C=C\\C/C=C\\CCCCCCCCCCOCC(CN1CCOCC1)OCCO[C@H]1CC[C@@]2(C)C(=CC[C@H]3[C@@H]4CC[C@H]([C@H](C)CCCC(C)C)[C@@]4(C)CC[C@@H]32)C1 (some centres unmarked)" readout_name=PDI readout_value=0.041
molecule="CCCCCCCC/C=C\\CCCCCCCCOCC(CN1CCCCC1)OCCO[C@H]1CC[C@@]2(C)C(=CC[C@H]3[C@@H]4CC[C@H]([C@H](C)CCCC(C)C)[C@@]4(C)CC[C@@H]32)C1 (some centres unmarked)" readout_name=PDI readout_value=0.073
molecule="CCCCCCCC/C=C\\CCCCCCCCOCC(CN1CCCC1C)OCCOCCO[C@H]1CC[C@@]2(C)C(=CC[C@H]3[C@@H]4CC[C@H]([C@H](C)CCCC(C)C)[C@@]4(C)CC[C@@H]32)C1 (some centres unmarked)" readout_name=PDI readout_value=0.148

// switching to the query molecule
Look up PDI: CCCCCCCC/C=C\CCCCCCCCOCC(CN1CCCC1C)OCCCOCCCO[C@H]1CC[C@@]2(C)C(=CC[C@H]3[C@@H]4CC[C@H]([C@H](C)CCCC(C)C)[C@@]4(C)CC[C@@H]32)C1 (some centres unmarked) 0.076

###

molecules and their reported PDI
test_details: Particle size and PDI by dynamic light scattering (Malvern Zetasizer)
Type: physicochemical
experimental_conditions: lipid/no neutral lipid/CHOL/AVANTI 880150P 50/0/46/4, N/P 3.43
Output spec: single numeric token, no unit.

PDI for CCCCC/C=C\C/C=C\CCCCCCCCOCC(CN1CC2CCCN(C(=O)OC(C)(C)C)C2C1)OCCOCCO[C@H]1CC[C@@]2(C)C(=CCC3C2CC[C@@]2(C)C3CC[C@@H]2[C@H](C)CCCC(C)C)C1 (stereo partly drawn) ? 0.21

Query: PDI; subject: CCCCC/C=C\C/C=C\CCCCCCCCOCC(CN1CCCCC1)OCCCCO[C@H]1CC[C@@]2(C)C(=CCC3C2CC[C@@]2(C)C3CC[C@@H]2[C@H](C)CCCC(C)C)C1 (stereo partly drawn) 0.15

Could you tell me which PDI is on file for CCCCC/C=C\C/C=C\CCCCCCCCOCC(CN1CCC(OC)CC1)OCCOCCO[C@H]1CC[C@@]2(C)C(=CCC3C2CC[C@@]2(C)C3CC[C@@H]2[C@H](C)CCCC(C)C)C1 (stereo partly drawn) ? 0.07

Given the entry CCCCC/C=C\C/C=C\CCCCCCCCOCC(CN1C[C@@H](C)O[C@@H](C)C1)OCCOCCO[C@H]1CC[C@@]2(C)C(=CC[C@H]3[C@@H]4CC[C@H]([C@H](C)CCCC(C)C)[C@@]4(C)CC[C@@H]32)C1 (stereo partly drawn) , report its measured PDI. 0.142

Find the recorded PDI belonging to CCCCC/C=C\C/C=C\CCCCCCCCOCC(CN1CCOCC1)OCCCCO[C@H]1CC[C@@]2(C)C(=CCC3C2CC[C@@]2(C)C3CC[C@@H]2[C@H](C)CCCC(C)C)C1 (stereo partly drawn) and report it. 0.125

// query PDI value for entry CCCCC/C=C\C/C=C\CCCCCCCCOCC(CN1CCC2(CC1)OCCO2)OCCOCCO[C@H]1CC[C@@]2(C)C(=CCC3C2CC[C@@]2(C)C3CC[C@@H]2[C@H](C)CCCC(C)C)C1 (stereo partly drawn) 0.206

Which value of PDI has been reported for CCCCC/C=C\C/C=C\CCCCCCCCOCC(CN1CCOCC1)OCCOCCO[C@H]1CC[C@@]2(C)C(=CC[C@H]3[C@@H]4CC[C@H]([C@H](C)CCCC(C)C)[C@@]4(C)CC[C@@H]32)C1 (stereo partly drawn) in the records? 0.23

Name the reported PDI value associated with the molecule CCCCC/C=C\C/C=C\CCCCCCCCOCC(CN1CCSCC1)OCCOCCO[C@H]1CC[C@@]2(C)C(=CCC3C2CC[C@@]2(C)C3CC[C@@H]2[C@H](C)CCCC(C)C)C1 (stereo partly drawn) 0.11

Value lookup for PDI; key = CCCCC/C=C\C/C=C\CCCCCCCCCCC(CN(C)C)OC(=O)CCC(=O)O[C@H]1CC[C@@]2(C)C(=CCC3C2CC[C@@]2(C)C3CC[C@@H]2[C@H](C)CCCC(C)C)C1 (stereo partly drawn) [E0174, reference compound] 0.21

// query PDI value for entry CCCCC/C=C\C/C=C\CCCCCCCCOCC(CN1CC[C@@H]2CCCC[C@@H]2C1)OCCOCCO[C@H]1CC[C@@]2(C)C(=CCC3C2CC[C@@]2(C)C3CC[C@@H]2[C@H](C)CCCC(C)C)C1 (stereo partly drawn) 0.184

Given the molecule CCCCC/C=C\C/C=C\CCCCCCCCOCC(CN1CCC(C)CC1)OCCOCCO[C@H]1CC[C@@]2(C)C(=CC[C@H]3[C@@H]4CC[C@H]([C@H](C)CCCC(C)C)[C@@]4(C)CC[C@@H]32)C1 (stereo partly drawn) , what is its reported PDI? 0.214

So what does the record say about PDI for CCCCC/C=C\C/C=C\CCCCCCCCOCC(CN1CCCCCC1)OCCOCCO[C@H]1CC[C@@]2(C)C(=CC[C@H]3[C@@H]4CC[C@H]([C@H](C)CCCC(C)C)[C@@]4(C)CC[C@@H]32)C1 (stereo partly drawn) ? 0.19

###

# Final size (nm) per entry
test_details: Particle size and PDI by dynamic light scattering (Malvern Zetasizer)
Type: physicochemical
experimental_conditions: lipid/DSPC/CHOL/AVANTI 880150P 50/28/18/4, N/P 3.43
The figure you give is taken to be in nm; do not add the unit.

compound="CCCCC/C=C\\C/C=C\\CCCCCCCCOCC(CN1CCC(OC)C1)OCCOCCO[C@H]1CC[C@@]2(C)C(=CC[C@H]3[C@@H]4CC[C@H]([C@H](C)CCCC(C)C)[C@@]4(C)CC[C@@H]32)C1 (some centres unmarked) [E0024]" readout_name="Final size (nm)" units_of_measure=nm readout_value=100
compound="CCCCC/C=C\\C/C=C\\CCCCCCCCOCC(CN1CC2CCCC2C1)OCCOCCO[C@H]1CC[C@@]2(C)C(=CC[C@H]3[C@@H]4CC[C@H]([C@H](C)CCCC(C)C)[C@@]4(C)CC[C@@H]32)C1 (some centres unmarked) [E0022]" readout_name="Final size (nm)" units_of_measure=nm readout_value=93
compound="CCCCC/C=C\\C/C=C\\CCCCCCCCOCC(CN1CCCCCC1)OCCOCCO[C@H]1CC[C@@]2(C)C(=CC[C@H]3[C@@H]4CC[C@H]([C@H](C)CCCC(C)C)[C@@]4(C)CC[C@@H]32)C1 (some centres unmarked) [E0017]" readout_name="Final size (nm)" units_of_measure=nm readout_value=106
compound="CCCCC/C=C\\C/C=C\\CCCCCCCCOCC(CN1CCCC(C)C1)OCCOCCO[C@H]1CC[C@@]2(C)C(=CCC3C2CC[C@@]2(C)C3CC[C@@H]2[C@H](C)CCCC(C)C)C1 (some centres unmarked) [E0023]" readout_name="Final size (nm)" units_of_measure=nm readout_value=95
compound="CCCCC/C=C\\C/C=C\\CCCCCCCCOCC(CN1CCOCC1)OCCOCCO[C@H]1CC[C@@]2(C)C(=CC[C@H]3[C@@H]4CC[C@H]([C@H](C)CCCC(C)C)[C@@]4(C)CC[C@@H]32)C1 (some centres unmarked) [E0011]" readout_name="Final size (nm)" units_of_measure=nm readout_value=111
compound="CCCCC/C=C\\C/C=C\\CCCCCCCCOCC(CN1CCC(N2CCCCC2)CC1)OCCOCCO[C@H]1CC[C@@]2(C)C(=CCC3C2CC[C@@]2(C)C3CC[C@@H]2[C@H](C)CCCC(C)C)C1 (some centres unmarked) [E0004]" readout_name="Final size (nm)" units_of_measure=nm readout_value=142
compound="CCCCC/C=C\\C/C=C\\CCCCCCCCOCC(CN1CCC(N(C)C)C1)OCCOCCO[C@H]1CC[C@@]2(C)C(=CC[C@H]3[C@@H]4CC[C@H]([C@H](C)CCCC(C)C)[C@@]4(C)CC[C@@H]32)C1 (some centres unmarked) [E0039]" readout_name="Final size (nm)" units_of_measure=nm readout_value=113

// next entry
Look up Final size (nm): CCCCC/C=C\C/C=C\CCCCCCCCOCC(CN1CCC(C)CC1)OCCOCCO[C@H]1CC[C@@]2(C)C(=CC[C@H]3[C@@H]4CC[C@H]([C@H](C)CCCC(C)C)[C@@]4(C)CC[C@@H]32)C1 (some centres unmarked) [E0008] 85
